# tested system: Long-chain-fatty-acid--AMP ligase FadD28 (Mycobacterium tuberculosis)
# Sequence (P9WQ59 whole entry): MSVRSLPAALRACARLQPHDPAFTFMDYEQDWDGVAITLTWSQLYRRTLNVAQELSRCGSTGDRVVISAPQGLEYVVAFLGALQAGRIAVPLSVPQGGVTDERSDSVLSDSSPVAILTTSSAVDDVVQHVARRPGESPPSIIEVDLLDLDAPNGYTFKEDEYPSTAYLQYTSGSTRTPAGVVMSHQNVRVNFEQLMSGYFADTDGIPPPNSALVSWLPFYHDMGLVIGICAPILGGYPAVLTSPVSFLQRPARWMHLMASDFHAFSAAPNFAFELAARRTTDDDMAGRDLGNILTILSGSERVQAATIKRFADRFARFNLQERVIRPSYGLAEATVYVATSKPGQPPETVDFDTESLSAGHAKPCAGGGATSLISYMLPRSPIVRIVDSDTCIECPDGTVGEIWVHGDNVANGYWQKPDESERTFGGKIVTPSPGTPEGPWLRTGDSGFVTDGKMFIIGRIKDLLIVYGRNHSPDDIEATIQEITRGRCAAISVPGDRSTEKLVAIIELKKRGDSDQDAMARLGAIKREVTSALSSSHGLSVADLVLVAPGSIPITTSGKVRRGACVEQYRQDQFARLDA
# assay details: Inhibition of Mycobacterium tuberculosis H37Rv FAAL28 Spectra expressed in Escherichia coli BL21(DE3) cells assessed as cleavage of MEsG by spectroscopic analysis
# test settings: read-out: Ki(app)
Can you tell me Ki for the items I'm about to list?
Answers are plain numbers, in µM.

Previously resolved entries follow.
Nc1ncnc2c1ncn2[C@@H]1O[C@H](COS(=O)(=O)NC(=O)CCCCCCCCCCOc2ccc(C(F)(F)F)cc2)[C@@H](O)[C@H]1O	15.6
Nc1ncnc2c1ncn2[C@@H]1O[C@H](COS(=O)(=O)NC(=O)CCCCCCCCCCOc2cccc3ccccc23)[C@@H](O)[C@H]1O	25.2

Query molecule follows.
Let me know recorded Ki for COc1ccc(OCCCCCCCCCCC(=O)NS(=O)(=O)OC[C@H]2O[C@@H](n3cnc4c(N)ncnc43)[C@H](O)[C@@H]2O)cc1 , thanks.
6.6

// provenance: ChEMBL document CHEMBL4765357
